- assay summary: folding stability dG unfold (combined trypsin and chymotrypsin); higher = more stable
Mark TRUE for reported folding stability dG unfold of 2 kcal/mol or greater; mark FALSE for anything smaller.

| ordered residues | assigned label |
| --- | --- |
| SAGSSSVTLFPEYTITTTTLPDGSRSVTINFTNPEEAKKLFEENPEIKELIEKFKKEGWDVKINAKNPSSAG [r14_873_JUSTAS] | TRUE |
| SMPKKIIVLEVDEEEIKEFLEKLELGEDTEVKILLSFPDGKTALLEIGPNEIKSIKPIDAIPEKAYIVIASA [r9_849_TrMRF] | FALSE |
| SAGGSAGGGMNATPKKIKVTITITDPSGNKTTVTREFDSEEEAEKFVKELLPPNRSYTVTYEPESAGGSAGG [r6_290_JUSTAS] | TRUE |
| SAGGSAGGMTPEELAEQKAEELREKLLAEGRPVSLKITKVTYEVDPKTGTVKVTSDIEIVYGPGSAGGSAGG [r6_454_JUSTAS] | FALSE |
| SPWYVRIKLEYPGKEKRIMIPPDESISQIKDNIRDFAREMGLEEPPLDDFKIEDVEVFPDENGMVSIEIKSA [r9_1053_TrROS] | FALSE |
| SAGGNMFMIKIDDPDALKELANEPGISSVHYNPNNGRYTVMFNFPDGMRTFEIDAEDGKIKEIEPFPSAGGS [r8_251_TrROS] | FALSE |
| SAGSLKPGDLLYVRIYVYNPDGELLGEIDELVETEEEAERRLRELAREIEERLGRNVRVLAEIYRYPRLSAG [r5_232_TrMRF] | TRUE |
| SAGGSGMIYVIKIKLEPTIKPGKKKEFEFELVLEATPEEIEEVLEKIKKLPKNIKIKEIKIEVFPESAGGSA [r2_75_TrMRF] | TRUE |
| SMFTLVLPDGSVIPVIKGDSTTTVYDPRTGRTLPIPSSTVEENSIEEIVERILAELEKLGVPAQPVEILESA [r9_1211_JUSTAS] | FALSE |
| SAGGMMYLIKVDTKEELKELAEAPGAKIVEEKEVNGKLYLLIEFPPGVTKIKIDVETRKIVEIEKLPSAGGS [r8_251_TrROS_Hall] | FALSE |
| SAGKPVKVTLNVVRLPGTGELVVFAEITYPDGSTAYAVARADLATGTVHVKLFDPNGKLLAELTVTLKPSAG [r14_524_TrMRF] | TRUE |
| SAGGMLRIRIDGREIEIGMTVEEILAAIEKELGREISPELREALRKAKTPEEIVEALRKLGLKIEIESAGGS [r16_601_TrROS_Hall] | TRUE |
| SASSVEKEFDSIEDALKAIKEALAKKVPVKMKMDPETVKELKKAGFPDIDVTKEKLPNGNEYYLLELLFSAG [r14_127_JUSTAS] | FALSE |
| SAGGSAEIEITVTVPPEMTEEEIKEQLEAELQRLTGEKVEIVDIRVEEVNGELTVTVKIKIEPAPPSAGGSA [r15_105_TrROS_Hall] | TRUE |
| SAGGSAGGSAGKLYIIRIKGKKIILSEDEVEKLKKKYPNAEIIPFKSKEDAEKALKKLKESAGGSAGGSAGG [r11_60_TrROS_Hall] | TRUE |
| SASSTLTFTLPRYTVNKVYDKEGKPVPVEITPVPTLEVTATTLPDGTVVVTIGDETRTYPPGVSPEELLSAG [r14_909_JUSTAS] | FALSE |
| SAGGETVTITIKVKGKEITVTFNKDTGKVTITDKDTGKTVTITLPAGEEPTLEELLEALKKLGFEIEPSAGG [r13_687_TrROS_Hall] | TRUE |
| SAGGSAGGSKLGVFEVGGKRYAVKVTDKNGKELTLAIPPELLKKLPKNLKVEVKEVKPGEPIPSAGGSAGGS [r12_419_TrMRF] | FALSE |
| SAGGSAGGSMYKVEIEIETSPEGGITIKVTIIPPDGSVIEGNLTPEEVAKRFGFPPPEILELLSAGGSAGGS [r20_235_JUSTAS] | TRUE |
| SAGGSAGGSKTIKIEIEKMSEEELKNLTAEEIAKLLGVKEVKVTKEKIEITLTEEELKKLEKKSAGGSAGGS [r12_178_TrROS_Hall] | FALSE |
| SAGGSAGGNPEDKERRYVRMPIKVTVPNPNGKKIKIPIYMPVGDPERMMPRAIKFARELAKKGLSAGGSAGG [r6_903_TrROS] | FALSE |
| PKWYEMNITINLPPDDPQKVKELKDALKKRNPDYKVKDIQFNPDDGQITINVWMPPQDQNRFQKAIKELLGS [r1_443_TrROS] | TRUE |
| SAGGSAGGSSPVRMVATIPLPDGTTITVEAEIVRLPDGTILIKTPSGEIIEVPPDVPVEFFPESAGGSAGGS [r20_227_JUSTAS] | TRUE |
| SAGMKPGEPITLVLPDGVVIPIKINPNGGVEIDDIEPPPDGTYNMDARHPNNGKEITLNIKLPPGFQILSAG [r5_394_TrROS] | FALSE |
| SAGGSAGGVIRMPFVIPDGYVIKDLTVHWSPGNGMFMIEIEIEPVKPPPPPEISPEELNKKNNKSAGGSAGG [r6_148_TrROS] | TRUE |
| SAGMYLVKITVTNEDGEKKEITVLVEAETEEEAREAAEELARELAEKYPEKIVEVKVEVVKLPPEVEPSAGG [r19_335_TrROS_Hall] | TRUE |
| SAGGSAGGSDPEFELVRVEVFPFPTATLVRAVARFPPTDEYVEVELVHFPVPDRVLLRVRLLPSAGGSAGGS [r12_14_TrMRF] | TRUE |
